Assign pKi to each entry below.
Tgt: Peptide deformylase (Escherichia coli, UniProt Q9JN24)
Sequence (Q9JN24 whole entry): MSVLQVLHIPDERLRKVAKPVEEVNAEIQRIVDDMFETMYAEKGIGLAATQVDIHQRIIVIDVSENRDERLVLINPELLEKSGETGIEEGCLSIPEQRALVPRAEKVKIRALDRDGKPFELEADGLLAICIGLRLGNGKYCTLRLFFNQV
Experimental Protocol: Inhibitory effect against Escherichia coli peptide deformylase (PDF) by AAP assay
Condition: read-out: Ki
Give bare numbers, as −log10 of the molar value.

Examples from the recorded data:
Compound Structure | Tgt | pKi
CC(C)(C)[C@@H]1NC(=O)[C@@H](CN(O)C=O)CCCCCCCCCCCNC1=O | Peptide deformylase (Escherichia coli, UniProt Q9JN24) | 9.66
CC(C)(C)[C@@H]1NC(=O)[C@@H](CN(O)C=O)CCCCCCCCCCNC1=O | Peptide deformylase (Escherichia coli, UniProt Q9JN24) | 9.64
CC(C)(C)[C@@H]1NC(=O)[C@@H](CN(O)C=O)CCCCCCCCNC1=O | Peptide deformylase (Escherichia coli, UniProt Q9JN24) | 7.86
NCCCC[C@@H]1NC(=O)[C@@H](CN(O)C=O)CCCCCCCCCNC1=O | Peptide deformylase (Escherichia coli, UniProt Q9JN24) | 8.52

Exam item: May I ask what pKi has been recorded for CC(C)(C)[C@@H]1NC(=O)[C@@H](CN(O)C=O)CCCCCCCCCNC1=O ?
Marked response: 9.48

---

Tgt: Peptide deformylase (Escherichia coli)
Experimental Protocol: Inhibitory effect against Escherichia coli peptide deformylase (PDF) by AAP assay
Condition: read-out: Ki
Assign pKi to each entry below.
One number for each entry, as −log10 of the molar value.

Compound Structure | Tgt | pKi
CC(C)(C)[C@@H]1NC(=O)[C@@H](CN(O)C=O)CCCCCCCCCCCCCCNC1=O | Peptide deformylase (Escherichia coli) | 7.60
NCCCC[C@@H]1NC(=O)[C@@H](CN(O)C=O)CCCCCCCCCCCCCCNC1=O | Peptide deformylase (Escherichia coli) | 7.44

Now, please, on to the next compound.
Exam item: May I ask what pKi has been recorded for CC(=O)NCCCC[C@@H]1NC(=O)[C@@H](CN(O)C=O)CCCCCCCCCNC1=O ?
Marked response: 7.92

---

Assign inhibition to each entry below.
Tgt: Interstitial collagenase (Homo sapiens) (UniProt P03956)
Sequence (P03956 whole entry): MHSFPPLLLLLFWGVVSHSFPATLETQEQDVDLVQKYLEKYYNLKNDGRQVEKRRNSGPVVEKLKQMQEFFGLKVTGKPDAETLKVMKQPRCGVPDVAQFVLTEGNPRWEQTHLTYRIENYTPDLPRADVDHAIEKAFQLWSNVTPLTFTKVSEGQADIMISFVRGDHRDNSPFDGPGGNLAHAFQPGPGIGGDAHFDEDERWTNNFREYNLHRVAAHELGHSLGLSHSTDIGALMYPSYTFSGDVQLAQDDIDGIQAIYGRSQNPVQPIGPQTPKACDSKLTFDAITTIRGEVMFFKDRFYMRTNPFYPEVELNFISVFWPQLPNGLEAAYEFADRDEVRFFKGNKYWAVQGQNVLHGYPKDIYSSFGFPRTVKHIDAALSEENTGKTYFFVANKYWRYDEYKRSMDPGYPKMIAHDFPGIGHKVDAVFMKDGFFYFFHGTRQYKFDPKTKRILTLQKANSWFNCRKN
Experimental Protocol: Inhibition of MMP-1 (matrix metalloprotease) at 1 uM
Answers are plain numbers, in %.

Examples from the recorded data:
Compound Structure | inhibition [%]
NCCCC[C@@H]1NC(=O)[C@@H](CN(O)C=O)CCCCCCCCCCCCCCNC1=O | 1
CC(C)(C)[C@@H]1NC(=O)[C@@H](CN(O)C=O)CCCCCCCCCCCCCCNC1=O | 7

Would you be so kind as to report inhibition for each listed record?
1. CC(C)(C)[C@@H]1NC(=O)[C@@H](CN(O)C=O)CCCCCCCCNC1=O
2. CC(=O)NCCCC[C@@H]1NC(=O)[C@@H](CN(O)C=O)CCCCCCCCCNC1=O
3. CCCCCCNC(=O)[C@H](CCCCN)NC(=O)[C@H](CCCCC)CN(O)C=O
4. CCCC[C@H](CN(O)C=O)C(=O)N[C@@H](CCCCN)C(=O)Nc1ccccc1

Marked response:
1. 0
2. 3
3. 50
4. 50

Exam item: May I ask what inhibition has been recorded for CC(C)(C)[C@@H]1NC(=O)[C@@H](CN(O)C=O)CCCCCCCCCNC1=O ?
Marked response: 7

---

Tgt: UniProtKB Q9JN24
Experimental Protocol: Inhibition constant against Escherichia coli Peptide deformylase (PDF)
Assign K5 to each entry below.

Examples from the recorded data:
Compound Structure | Quantity Name | Experimental Value
NCCCC[C@@H]1NC(=O)[C@@H](CN(O)C=O)CCCCCCCCCCCCCCNC1=O | K5 | 0.11 min⁻¹
CC(C)(C)[C@@H]1NC(=O)[C@@H](CN(O)C=O)CCCCCCCCCCNC1=O | K5 | 1.6 min⁻¹
CC(=O)NCCCC[C@@H]1NC(=O)[C@@H](CN(O)C=O)CCCCCCCCCNC1=O | K5 | 0.28 min⁻¹

Now, please, on to the next compound.
Exam item: May I ask what K5 has been recorded for NCCCC[C@@H]1NC(=O)[C@@H](CN(O)C=O)CCCCCCCCCNC1=O ?
Marked response: 0.12 min⁻¹
